Reference source for all entries: the supplement of paper PMC10307832

- System: SW 1573
- Assay notes: relative viability (nuclei count vs DMSO), 5 days (fraction); higher = more cells survive
- Run parameters: first compound 0.5 µM
Measured attribute: relative viability
// print number alone

Consider the worked cases shown below.
{"columns": ["Compound", "relative viability"],
 "data": [
  ["Nc1ccn([C@@H]2O[C@H](CO)[C@@H](O)[C@@H]2O)c(=O)n1 [Cytarabine] + C[C@]1(O)C[C@@H](c2nc(-c3ccc4ccc(-c5ccccc5)nc4c3)c3c(N)nccn32)C1 [Linsitinib] (partner 1 µM)", 0.149],
  ["COc1cc2nccc(Oc3ccc(NC(=O)Nc4cc(C)on4)c(Cl)c3)c2cc1OC [Tivozanib] + CC1(C)CCC(c2ccc(Cl)cc2)=C(CN2CCN(c3ccc(C(=O)NS(=O)(=O)c4ccc(N[C@H](CCN5CCOCC5)CSc5ccccc5)c(S(=O)(=O)C(F)(F)F)c4)cc3)CC2)C1 [Navitoclax] (partner 0.5 µM)", 0.983]
]}

Now turn to the next compound.
Q. // output relative viability; input COc1cc2nccc(Oc3ccc(NC(=O)Nc4cc(C)on4)c(Cl)c3)c2cc1OC [Tivozanib] + O=C(CCCCCCC(=O)Nc1ccccc1)NO [Vorinostat] (partner 1 µM) ; system SW 1573
A. 0.281
